tested on: HCV genotype 1b subgenomic replicon; test: HCV replicon assay, genotype 1b subgenomic replicon (ET cell line, luciferase); assay type: cell-based; settings: Hepatitis C virus; genotype 1b replicon ET cell line, luciferase activity measured 48 hours later; read-out: Replicon 1B pEC50 (converted)
parameter: EC50 (nM)
Answers are plain numbers, in nM.

{"molecule": "COC(=O)N[C@H](C(=O)N1CC2(CCN(C(=O)OC)CC2)CC1c1ncc(-c2ccc(-c3ccc(-c4cnc([C@@H]5CCCN5C(=O)[C@@H](NC(=O)OC)C(C)C)[nH]4)cc3)cc2)[nH]1)C(C)C (some centres unmarked)", "EC50 (nM)": 0.0158}

// EC50 value for COC(=O)N[C@H](C(=O)N1CC2(CCN(C(=O)OC(C)(C)C)CC2)CC1c1ncc(-c2ccc(-c3ccc(-c4cnc([C@@H]5CCCN5C(=O)[C@@H](NC(=O)OC)C(C)C)[nH]4)cc3)cc2)[nH]1)C(C)C (some centres unmarked) : 0.0398

The values you see were collected from patent US9814699B2.
